assayed.target: caspase-3 (Homo sapiens (Human), UniProt P42574)
Sequence (P42574 29-175): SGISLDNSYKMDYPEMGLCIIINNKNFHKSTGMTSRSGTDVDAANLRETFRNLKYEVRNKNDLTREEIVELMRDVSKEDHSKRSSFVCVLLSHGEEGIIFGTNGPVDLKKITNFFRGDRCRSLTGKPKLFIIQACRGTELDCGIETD
Sequence (P42574 176-277): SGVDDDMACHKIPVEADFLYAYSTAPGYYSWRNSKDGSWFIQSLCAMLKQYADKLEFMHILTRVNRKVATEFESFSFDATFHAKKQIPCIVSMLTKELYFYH
assay.procedure: Caspase-3 Inhibitor Drug Screening Kit, fluorometric enzymatic assay
Type: biochemical
Non-standard residues stand in square brackets, D forms with d. Residues, ends and D or L forms follow the SMILES beside them. *: point of attachment. Phg = N[C@H](C(=O)O)c1ccccc1; Cbz = O=C(OCc1ccccc1)*; OtBu = CC(C)(C)O*

molecule	activity against caspase-3 (in words)
CC(C)(C)OC(=O)C[C@H](N)/C=C/S(C)(=O)=O.Cc1ccc(S(=O)(=O)O)cc1 (stereo in doubt)	devoid of any activity
CS(=O)(=O)/C=C/[C@@H](N)CC(=O)O.Cc1ccc(S(=O)(=O)O)cc1 [Compound 93, Aspmethyl vinyl sulfone tosyl salt]	devoid of any activity
CC(C)[C@H](NC(=O)[C@@H](NC(=O)[C@H](CC(=O)OC(C)(C)C)NC(=O)OCc1ccccc1)c1ccccc1)C(=O)O [Compound 16, Z-Asp(β-tert-Butyl)-Phg-Val-OH.] (Cbz-Asp(OtBu)-[Phg]-Val-OH)	devoid of any activity

---

System: Hela cells
assay.procedure: Inhibition of proteolytic cleavage of PARP in staurosporine-treated live Hela cells
Assay type: cell-based
experimental.setup: Homo sapiens, staurosporine
endpoint.name: IC50 (µM)
Provide only the numeric value, understood in µM.

For the record COC(=O)CC[C@H](NC(=O)[C@H](CC(=O)OC)NC(=O)OCc1ccccc1)C(=O)N[C@H](C(=O)N[C@@H](CC(=O)OC)C(=O)CF)C(C)C [DEVD-fmk, reference compound] , what value of IC50 is listed for Hela cells?
20
